Test system: NCI-H226 lung
EXPERIMENTAL PROTOCOL: NCI-60 one-dose screen, 48 h
MEASUREMENT PARAMETERS: 10 µM unless noted
The panel holds about 83,000 compounds, 20% with a hit somewhere; the sample as a whole holds those more often. Activity calls are given as the source filed them. How the source made its calls: active means growth percent below 10; inactive means the rest.
Classes to choose from: active, inactive

compound=OCCNCCCOc1ccc2ncnc(Nc3ccc(Oc4cccc(C(F)(F)F)c4)c(Cl)c3)c2c1 class_label=inactive
compound=CCN1CCN(c2cc(C(=O)Nc3nc(-c4cc(OC)c(OC)c(OC)c4)cs3)cc(C(F)(F)F)c2)CC1 class_label=inactive

Exercise: Name the outcome recorded for CCN(CC)c1nc(SCc2ccccc2Cl)ncc1C in the assay.
Solution: inactive

Exercise: What would you report for COc1ccc(Cc2cc(-c3ccccc3)nn(Cc3ccccc3)c2=O)cc1OC ?
Solution: inactive

Exercise: What would you report for CCCNC(=O)Oc1ccc(/C(=C(/C)Cc2ccc(OC)cc2)c2ccc(OCCCN(C)C)cc2)cc1 ?
Solution: inactive
